# ASSAYED TARGET: ABCC6 WT (Homo sapiens)
# Sequence (O95255 whole entry): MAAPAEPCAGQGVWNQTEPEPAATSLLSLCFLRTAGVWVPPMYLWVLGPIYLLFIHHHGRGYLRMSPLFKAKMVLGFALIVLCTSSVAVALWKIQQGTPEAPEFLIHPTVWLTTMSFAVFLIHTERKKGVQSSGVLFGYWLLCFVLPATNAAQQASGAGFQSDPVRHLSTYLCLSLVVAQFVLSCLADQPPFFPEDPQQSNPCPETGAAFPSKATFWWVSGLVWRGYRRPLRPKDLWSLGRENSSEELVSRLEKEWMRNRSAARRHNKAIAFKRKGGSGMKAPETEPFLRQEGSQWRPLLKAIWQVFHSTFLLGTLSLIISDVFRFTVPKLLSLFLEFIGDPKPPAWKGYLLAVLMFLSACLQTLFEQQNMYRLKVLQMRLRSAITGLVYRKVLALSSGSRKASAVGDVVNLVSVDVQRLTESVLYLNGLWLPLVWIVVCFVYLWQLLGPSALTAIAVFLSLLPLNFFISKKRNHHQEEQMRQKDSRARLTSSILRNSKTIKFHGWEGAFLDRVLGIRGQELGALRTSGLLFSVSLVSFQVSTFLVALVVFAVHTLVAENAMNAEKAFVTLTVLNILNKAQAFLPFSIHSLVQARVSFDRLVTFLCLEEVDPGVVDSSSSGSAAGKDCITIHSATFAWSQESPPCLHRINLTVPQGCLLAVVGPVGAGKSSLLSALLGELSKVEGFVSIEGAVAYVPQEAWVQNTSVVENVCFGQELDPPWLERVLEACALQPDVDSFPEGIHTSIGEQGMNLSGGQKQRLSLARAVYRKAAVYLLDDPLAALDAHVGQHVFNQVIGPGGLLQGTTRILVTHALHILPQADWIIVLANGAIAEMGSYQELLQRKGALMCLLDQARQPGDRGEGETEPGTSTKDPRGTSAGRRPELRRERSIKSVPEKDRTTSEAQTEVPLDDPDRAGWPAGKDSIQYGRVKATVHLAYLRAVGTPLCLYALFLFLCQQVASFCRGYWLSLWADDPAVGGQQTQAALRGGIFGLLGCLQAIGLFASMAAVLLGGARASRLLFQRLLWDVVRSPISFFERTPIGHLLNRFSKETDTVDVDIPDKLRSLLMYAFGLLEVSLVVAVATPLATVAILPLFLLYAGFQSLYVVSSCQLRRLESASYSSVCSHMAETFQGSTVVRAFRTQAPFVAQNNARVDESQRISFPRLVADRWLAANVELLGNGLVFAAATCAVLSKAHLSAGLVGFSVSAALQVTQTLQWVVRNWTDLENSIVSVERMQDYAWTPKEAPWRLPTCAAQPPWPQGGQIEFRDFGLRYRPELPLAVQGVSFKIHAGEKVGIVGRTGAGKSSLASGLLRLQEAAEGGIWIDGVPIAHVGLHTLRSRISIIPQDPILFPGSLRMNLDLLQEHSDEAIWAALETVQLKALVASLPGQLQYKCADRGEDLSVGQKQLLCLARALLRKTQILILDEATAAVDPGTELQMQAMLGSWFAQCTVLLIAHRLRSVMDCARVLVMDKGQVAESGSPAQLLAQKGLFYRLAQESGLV
# ASSAY DETAILS: ABCC6 WT assay: HiBit protein expression
# MEASUREMENT PARAMETERS: HEK-293 cells transiently expressing HiBit-tagged ABCC6 WT; 24 h treatment; top concentration 20 μM; read-out: ABCC6 WT EC50, Emax
EC50 values by entry

Past entries and their recorded results:
Cc1cc(C)c(Oc2nc(-n3cnc(C)c3)ccc2NS(C)(=O)=O)c(C)c1 [Compound I-12] | < 1000 nM
Cc1cc(C2CC2)nc(C2CC2)c1Oc1nc(-c2cncc(C#N)c2)ccc1N(C)S(C)(=O)=O [Compound I-146] | ≥ 25000 nM
Cc1nc(C(F)(F)F)nc(C2CC2)c1Oc1nc(-c2cncc(C#N)c2)ccc1NS(C)(=O)=O [Compound I-145] | < 1000 nM

Lookup: Please tell me: EC50 of Cc1cc(C)c(Oc2nc(-c3cncc(N4CCOCC4)c3)ccc2NS(C)(=O)=O)c(C)n1 [Compound I-201] , system ABCC6 WT (Homo sapiens)?
Found: 1000 to 10000 nM

====

# key: entry, value: EC50
# ASSAYED TARGET: ABCC6 WT (Homo sapiens)
# ASSAY DETAILS: ABCC6 WT assay: HiBit protein expression
# MEASUREMENT PARAMETERS: HEK-293 cells transiently expressing HiBit-tagged ABCC6 WT; 24 h treatment; top concentration 20 μM; read-out: ABCC6 WT EC50, Emax

See these solved cases before continuing.
Cc1cc(C)c(Oc2nc(-c3cncc(C#N)c3)ccc2NS(=O)(=O)C2COC2)c(C)c1 [Compound I-267] | < 1000 nM
Cc1nc(N2CC3(COC3)C2)nc(C)c1Oc1nc(-c2cncc(C#N)c2)ccc1NS(C)(=O)=O [Compound I-160] | 1000 to 10000 nM
Cc1cc(C)c(Oc2nc(-c3cncc(C#N)c3)ccc2S(=N)(=O)C2CC2)c(C)c1 (stereo not shown) [Compound I-245] | < 1000 nM

Lookup: What does the record list as EC50 for Cc1cc(C)c(Oc2nc(-c3cncc(Cl)c3)ccc2N(C)S(=O)(=O)Cc2ccccc2)c(C)c1 [Compound I-64] ?
Found: < 25000 nM

Lookup: // next record Cc1cc(C)c(Oc2nc(-c3cncc(C#N)c3)ccc2NS(=O)(=O)c2cccnc2)c(C2CC2)n1 [Compound I-147]
Found: < 1000 nM

Lookup: Also Cc1cc(C)c(Oc2nc(-c3cncc(Cl)c3)ccc2NS(=O)(=O)Cc2ccccn2)c(C)c1 [Compound I-62] , if possible.
Found: ≥ 25000 nM

Lookup: Please answer likewise for Cc1cc(C)c(Oc2nc(-c3cc(C#N)c[nH]c3=O)ccc2NS(C)(=O)=O)c(C)n1 [Compound I-326]
Found: 1000 to 10000 nM

====

# ASSAYED TARGET: ABCC6 WT (Homo sapiens)
# ASSAY DETAILS: ABCC6 WT assay: HiBit protein expression
# MEASUREMENT PARAMETERS: HEK-293 cells transiently expressing HiBit-tagged ABCC6 WT; 24 h treatment; top concentration 20 μM; read-out: ABCC6 WT EC50, Emax
pEC50: −log10 of the molar value.
In this section, each of the compounds is paired with its reported pEC50.

Below, 3 compounds whose answers are already recorded.
Cc1nc(C)c(Oc2nc(-c3cncc(Cl)c3)ccc2NS(C)(=O)=O)c(C2CC2)n1 [Compound I-164] | > 4.60
CCS(=O)(=O)Nc1ccc(-c2cncc(C#N)c2)nc1Oc1c(C)cc(C)nc1C [Compound I-247] | > 6.00
Cc1cc(C)c(Oc2nc(-c3cncc(Cl)c3)ccc2NS(=O)(=O)C2COC2)c(C)n1 [Compound I-237] | > 6.00

Lookup: Recorded pEC50 for Cc1cc(C)c(Oc2nc(-n3cc(C)cn3)ccc2NS(C)(=O)=O)c(C)c1 [Compound I-11] , please?
Found: 5.00 to 6.00

====

# ASSAYED TARGET: ABCB4 WT (Homo sapiens, UniProt P21439)
# Sequence (P21439 whole entry): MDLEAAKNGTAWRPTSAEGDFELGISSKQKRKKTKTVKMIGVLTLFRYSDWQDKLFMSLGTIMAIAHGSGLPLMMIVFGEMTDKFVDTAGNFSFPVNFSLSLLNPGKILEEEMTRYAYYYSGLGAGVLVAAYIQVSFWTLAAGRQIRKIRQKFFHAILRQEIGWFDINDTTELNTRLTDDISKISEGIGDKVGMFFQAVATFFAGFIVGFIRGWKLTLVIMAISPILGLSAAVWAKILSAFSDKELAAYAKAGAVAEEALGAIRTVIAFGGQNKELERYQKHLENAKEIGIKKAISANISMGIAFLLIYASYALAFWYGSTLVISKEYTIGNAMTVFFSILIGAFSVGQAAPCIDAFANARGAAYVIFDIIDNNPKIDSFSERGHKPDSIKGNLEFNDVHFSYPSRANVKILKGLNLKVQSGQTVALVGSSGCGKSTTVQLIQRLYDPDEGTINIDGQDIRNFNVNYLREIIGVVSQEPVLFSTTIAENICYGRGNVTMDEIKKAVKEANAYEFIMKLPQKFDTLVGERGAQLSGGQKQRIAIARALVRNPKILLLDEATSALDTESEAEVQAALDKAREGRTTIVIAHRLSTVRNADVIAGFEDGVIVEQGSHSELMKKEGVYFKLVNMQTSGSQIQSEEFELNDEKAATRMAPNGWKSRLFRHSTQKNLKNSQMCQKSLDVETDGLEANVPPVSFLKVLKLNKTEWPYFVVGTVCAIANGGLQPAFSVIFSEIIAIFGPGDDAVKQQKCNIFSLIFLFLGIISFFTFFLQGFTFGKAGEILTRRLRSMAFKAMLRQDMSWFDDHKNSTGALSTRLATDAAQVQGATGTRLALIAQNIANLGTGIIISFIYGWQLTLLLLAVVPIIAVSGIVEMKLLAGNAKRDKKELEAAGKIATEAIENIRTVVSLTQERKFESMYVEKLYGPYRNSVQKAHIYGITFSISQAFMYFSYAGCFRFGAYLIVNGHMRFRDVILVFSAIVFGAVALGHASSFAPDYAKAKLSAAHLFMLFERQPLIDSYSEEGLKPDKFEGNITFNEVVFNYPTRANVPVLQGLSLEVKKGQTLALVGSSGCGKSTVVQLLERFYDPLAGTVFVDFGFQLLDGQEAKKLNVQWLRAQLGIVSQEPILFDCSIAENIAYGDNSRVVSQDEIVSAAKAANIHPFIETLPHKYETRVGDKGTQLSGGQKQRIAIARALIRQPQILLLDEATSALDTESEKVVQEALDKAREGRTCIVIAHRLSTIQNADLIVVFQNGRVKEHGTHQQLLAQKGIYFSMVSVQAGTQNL
# ASSAY DETAILS: ABCB4 WT assay: HiBit protein expression
# MEASUREMENT PARAMETERS: HEK-293 cells stably expressing HiBit-tagged ABCB4 WT; 24 h treatment; top concentration 30 μM; read-out: ABCB4 WT EC50, Emax
ENDPOINT: EC50

Examples from the recorded data:
Cc1cc(C2CC2)nc(C)c1Oc1nc(-n2ccc(C#N)n2)ccc1NS(C)(=O)=O [Compound I-255] | ≥ 25 µM
Cc1cc(C)c(Oc2nc(N3CCN(C(=O)C4CC4)CC3)ccc2NS(C)(=O)=O)c(C)c1 [Compound I-47] | < 1 µM
CNS(=O)(=O)c1ccc(-c2cncc(C#N)c2)nc1Oc1c(C)cc(C(F)(F)F)nc1C1CC1 [Compound I-293] | < 1 µM

For the next question, use this molecule.
Lookup: Provide the documented EC50 with ABCB4 WT (Homo sapiens, UniProt P21439) as the system for Cc1cc(C)c(Oc2nc(-c3cncc(N4CC(F)C4)c3)ccc2NS(C)(=O)=O)c(C)n1 [Compound I-185]
Found: < 1 µM

====

# ASSAYED TARGET: ABCD2 WT (Homo sapiens, UniProt Q9UBJ2)
# Sequence (Q9UBJ2 whole entry): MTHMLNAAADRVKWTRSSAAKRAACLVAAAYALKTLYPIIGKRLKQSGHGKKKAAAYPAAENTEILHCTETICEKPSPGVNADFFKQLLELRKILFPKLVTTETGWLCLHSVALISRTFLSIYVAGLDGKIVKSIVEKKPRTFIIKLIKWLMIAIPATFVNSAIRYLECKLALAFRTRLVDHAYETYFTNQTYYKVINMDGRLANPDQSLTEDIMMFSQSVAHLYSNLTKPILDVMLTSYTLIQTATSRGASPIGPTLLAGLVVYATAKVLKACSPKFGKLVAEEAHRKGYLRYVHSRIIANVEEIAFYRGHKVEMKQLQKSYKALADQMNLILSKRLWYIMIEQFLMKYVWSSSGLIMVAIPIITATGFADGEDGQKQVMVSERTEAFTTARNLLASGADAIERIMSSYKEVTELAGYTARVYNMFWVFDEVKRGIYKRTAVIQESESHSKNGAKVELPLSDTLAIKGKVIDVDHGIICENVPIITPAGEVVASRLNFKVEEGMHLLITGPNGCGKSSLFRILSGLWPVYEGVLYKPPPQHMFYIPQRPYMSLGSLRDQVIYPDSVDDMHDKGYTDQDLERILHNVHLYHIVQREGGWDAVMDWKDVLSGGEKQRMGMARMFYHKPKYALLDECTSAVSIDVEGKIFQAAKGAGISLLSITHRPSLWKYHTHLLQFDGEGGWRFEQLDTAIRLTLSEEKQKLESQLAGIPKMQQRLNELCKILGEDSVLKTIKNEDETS
# ASSAY DETAILS: D2 correction dose-response assay: ABCD2 WT HiBit protein expression
# MEASUREMENT PARAMETERS: HEK-293/ABCD2 WT cells, 24 hours treatment, HiBit luminescence; class combines EC50 and Mean MaxAct (fold); read-out: ABCD2 WT EC50, Emax
pEC50: −log10 of the molar value.
# maps each entry to its pEC50

Cc1cc(C)c(Oc2nc(N3CCn4c(C)nnc4C3)ccc2NS(C)(=O)=O)c(C)c1 | < 4.60

Lookup: Given the entry "Cc1cc(C(F)(F)F)nc(C2CC2)c1Oc1nc(-c2cncc(C#N)c2)ccc1S(=O)(=O)Nc1cccnc1" , report its measured pEC50.
Found: > 6.00

Lookup: Now consider "Cc1cc(C(F)F)nc(C)c1Oc1nc(-c2cncc(C3COC3)c2)ccc1NS(C)(=O)=O" .
Found: 5.00 to 6.00

Lookup: Would you mind doing "Cc1cc(C)c(Oc2nc(N3CC4CC(C3)N4C(=O)C3CC3)ccc2NS(C)(=O)=O)c(C)c1" as well?
Found: 5.00 to 6.00

Lookup: Entry "Cc1cc(C)c(Oc2nc(-c3cncc(Cl)c3)ccc2NS(=O)(=O)c2cccnc2)c(C)c1" please
Found: > 4.60

Lookup: // next record "Cc1cc(C)c(Oc2nc(-c3ccc(C#N)nc3)ccc2NS(C)(=O)=O)c(C)n1"
Found: > 6.00

====

# ASSAYED TARGET: ABCB4 WT (Homo sapiens, UniProt P21439)
# ASSAY DETAILS: ABCB4 WT assay: HiBit protein expression
# MEASUREMENT PARAMETERS: HEK-293 cells stably expressing HiBit-tagged ABCB4 WT; 24 h treatment; top concentration 30 μM; read-out: ABCB4 WT EC50, Emax
pEC50: −log10 of the molar value.
Listing of entries alongside the reported pEC50.

Cc1nc(C2COC2)nc(C2CC2)c1Oc1nc(-c2cncc(C#N)c2)ccc1NS(C)(=O)=O | > 6.00
Cc1cc(C)c(Oc2nc(-c3cncc(Cl)c3)cnc2NS(C)(=O)=O)c(C)n1 | ≤ 4.60
COC1CN(c2cncc(-c3ccc(NS(C)(=O)=O)c(Oc4c(C)cc(C)nc4C)n3)c2)C1 | ≤ 4.60

Lookup: Would you mind telling me what pEC50 value was observed for Cc1cc(C)c(Oc2nc(-c3cncc(C#N)c3)ccc2S(=N)(=O)C2CC2)c(C)n1 (stereo not drawn) ?
Found: 5.00 to 6.00

Lookup: How about this compound: "Cc1cc(C2CC2)nc(C2CC2)c1Oc1nc(-c2cncc(C#N)c2)ccc1N(C)S(C)(=O)=O"
Found: ≤ 4.60

Lookup: Likewise for "Cc1nc(C(F)(F)F)nc(C2CC2)c1Oc1nc(-c2cncc(Cl)c2)ccc1NS(C)(=O)=O" ?
Found: > 6.00

Lookup: Also "Cc1cc(C)c(Oc2nc(-c3cncc(C#N)c3)ccc2NS(=O)(=O)C2(C)CC2)c(C)n1" ?
Found: > 6.00

Lookup: Also need Cc1cc(C)c(Oc2nc(N3CCC(C#N)C3)ccc2NS(C)(=O)=O)c(C)c1 (single isomer, unassigned) [Compound I-262] , thanks.
Found: 5.00 to 6.00

Lookup: Query "Cc1nc(N2CC(S(C)(=O)=O)C2)nc(C)c1Oc1nc(-c2cncc(C#N)c2)ccc1NS(C)(=O)=O" next
Found: 5.00 to 6.00

Lookup: Now try "COc1nc(C)cc(C)c1Oc1nc(-c2cncc(C#N)c2)ccc1NS(C)(=O)=O" .
Found: > 6.00

Lookup: How about "Cc1nc(C(F)F)nc(C)c1Oc1nc(-c2cncc(Cl)c2)ccc1NS(C)(=O)=O" ?
Found: > 6.00

Lookup: Same thing, different compound: "Cc1cc(C)c(Oc2nc(-c3cncc(C4CC4)c3)ccc2NS(C)(=O)=O)c(C)n1"
Found: > 4.60

Lookup: Repeat with "Cc1cc(C)c(Oc2nc(-c3cncc(Cl)c3)ccc2S(=O)(=O)N[C@@H](c2ccccc2)C(F)(F)F)c(C)c1"
Found: ≤ 4.60

Lookup: Do the same for "Cc1cc(C(F)F)nc(C2CC2)c1Oc1nc(-c2cncc(C#N)c2)ccc1S(=O)(=O)NC1CCOCC1" please
Found: > 4.60

Lookup: Next entry: Cc1cc(C)c(Oc2nc(-c3cncc(C#N)c3)ccc2S(C)(=N)=O)c(C)c1 (stereo not drawn)
Found: > 6.00

Lookup: Repeat with "CNC(=O)N1CCN(c2ccc(NS(C)(=O)=O)c(Oc3c(C)cc(C)cc3C)n2)CC1"
Found: 4.60 to 5.00

Lookup: And for Cc1cc(C(F)F)cc(C2CC2)c1Oc1nc(-c2cncc(C#N)c2)ccc1S(=N)(=O)C1CC1 (stereo not drawn) ?
Found: 5.00 to 6.00

Lookup: Now consider "Cc1cc(C)c(Oc2nc(-c3cncc(Cl)c3)ncc2NS(C)(=O)=O)c(C)c1" and answer again.
Found: ≤ 4.60

Lookup: Entry to check: "Cc1cc(C)c(Oc2nc(N3CC4(C3)CN(S(=O)(=O)C3CC3)C4)ccc2NS(C)(=O)=O)c(C)c1"
Found: ≤ 4.60

Lookup: Note, next up: "Cc1cc(Oc2nc(-c3cncc(C#N)c3)ccc2NS(C)(=O)=O)c(C)nc1C(F)(F)F"
Found: > 6.00

Lookup: # iterate: "Cc1cc(C2CCC2)nc(C)c1Oc1nc(-c2cncc(C#N)c2)ccc1NS(C)(=O)=O"
Found: > 6.00

Lookup: Can you check COC1CC(S(=O)(=O)Nc2ccc(-c3cncc(Cl)c3)nc2Oc2c(C)cc(C)cc2C)C1 (stereo not drawn) next?
Found: > 6.00

Lookup: What do you get for Cc1cc(C(F)(F)F)nc(C2CC2)c1Oc1nc(-c2cncc(C#N)c2)ccc1S(=N)(=O)c1ccccn1 (stereo not drawn) ?
Found: 4.60 to 5.00

Lookup: And "Cc1cc(C)c(Oc2nc(-c3cncc(C#N)c3)ccc2NS(=O)(=O)c2cccnc2)c(C2CC2)n1" ?
Found: > 4.60
